System: LOC_OS04G35114-cb001;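 also: purified Escherichia coli-expressed rice kinase domain construct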
Assay: thermal shift delta Tm vs DMSO control; higher = stronger stabilization (binding)
Settings: 12.5 µM; protein concentration 2 µM
ENDPOINT NAME: thermal shift delta Tm (°C)
One number for each entry, in °C.

smiles_notation=O=c1cc(-c2cccc3c2Sc2ccccc2S3)oc(N2CCOCC2)c1 measured_number=-0.05
smiles_notation=COc1ccc(Oc2cc(NCCC(F)(F)F)c3ncc(-c4ccc(C(=O)NC5CC5)c(C)c4)n3n2)c(F)c1F measured_number=1.1
smiles_notation=Cc1ccc(NC(=O)c2ccc(CN3CC[C@H](N(C)C)C3)c(C(F)(F)F)c2)cc1Nc1nccc(-c2cncnc2)n1 measured_number=0.18
smiles_notation=CC(C)c1cnn2c(NCc3ccccc3)cc(NCCCCCCN)nc12 measured_number=0.56
smiles_notation=FC(F)c1nc2ccccc2n1-c1nc(N2CCOCC2)nc(N2CCOCC2)n1 measured_number=0.03

Quick one: give me thermal shift delta Tm for each item below, same order please.
1. COc1ccc(-c2nc(N3CCOCC3)c3sc(CN(C)c4ncc(C(=O)NO)cn4)cc3n2)cn1
2. Oc1c2ccccc2c2c3c(cccc13)N=N2
3. CS(=O)(=O)N1CCc2c(-c3cnc(N)nc3)nc(N3CCOCC3)nc21
4. Cc1cc(C(=O)NOCCO)c(Nc2ccc(I)cc2F)n(C)c1=O

Key:
0.64
6.42
0.89
0.41
